target: aldose reductase (Sus scrofa, UniProt P80276); construct: swine lenses freeze-stored at -80°C were homogenized with distilled water; from tissue; host or cells: swine lens; experiment: Aldose reductase inhibitory action (method of S. Hayman et al., absorbance change at 340 nm); assay type: biochemical, swine

molecule	target_or_system	unit_abbrev	IC50
CC(/C=C1\SC(=S)N(CC(=O)O)C1=O)=C\c1ccccc1 [EPALRESTAT, reference compound]	aldose reductase (Sus scrofa, UniProt P80276)	nM	21

====

Target: aldose reductase (Sus scrofa)
Construct: swine lenses freeze-stored at -80°C were homogenized with distilled water; from tissue; host or cells: swine lens
Test: Aldose reductase inhibitory action (method of S. Hayman et al., absorbance change at 340 nm)
Format: biochemical, swine
Details: swine lens enzyme, 3 mM dl-glyceraldehyde as substrate, 0.1 mM NADPH, pH 6.2, 25°C; read-out: IC₅₀
Experimental: That is, swine lenses freeze-stored at -80°C were homogenized with distilled water and cetrifuged at 10,000 G for 15 minutes. The supernatant was prepared into a 40% ammonium sulfate solution and subjected to cetrifugation at 10,000 G for 10 minutes. […]
The reader will find reported IC50 values listed item by item below.
quantity_name: IC50 (nM)

molecule	test_result
O=C(O)CC1Sc2ncccc2N(Cc2nc3c(F)c(F)cc(F)c3s2)C1=O (stereo not shown)	11
O=C(O)CC1Sc2ncccc2N(Cc2nc3c(F)c(F)ccc3s2)C1=O (stereo not shown)	12
O=C(O)CC1Sc2ncccc2N(Cc2nc3c(Cl)c(Cl)ccc3s2)C1=O (stereo not shown)	12
O=C(O)CC1Sc2cnccc2N(Cc2nc3c(F)c(F)cc(F)c3s2)C1=O (stereo not shown)	12
